- Tested on: HAP1 SLC16A1^−/− cells
- experiment: Synthetic lethality guided viability screening (CellTiter Glo), HAP1 SLC16A1-/- cells (SLC16A3-dependent)
- Format: cell-based
- condition: Homo sapiens, HAP1; 72 hours, Cell titer glo, from dose response curves
pIC50: −log10 of the molar value.
Property: pIC50; scope: individual molecules
measuredMetric: pIC50

INSERT INTO measurements (structurenotation, observedmeasurement) VALUES
  ('CCOc1ccc(NC(=O)CCc2c(C)nc3ncnn3c2C)cc1', 5.15),
  ('Cc1nc2nc(C(F)(F)F)nn2c(C)c1CCC(=O)Nc1cccnc1', 5.08),
  ('Cc1nc2nc(C(F)(F)F)nn2c(C)c1CCC(=O)Nc1ccccc1', 5.05);
